# ASSAYED_TARGET: full-length beta-Catenin (Uniprot ID P35222) (Homo sapiens)
# Construct: 10 nM full-length beta-Catenin (Uniprot ID P35222)
# Sequence (P35222 whole entry): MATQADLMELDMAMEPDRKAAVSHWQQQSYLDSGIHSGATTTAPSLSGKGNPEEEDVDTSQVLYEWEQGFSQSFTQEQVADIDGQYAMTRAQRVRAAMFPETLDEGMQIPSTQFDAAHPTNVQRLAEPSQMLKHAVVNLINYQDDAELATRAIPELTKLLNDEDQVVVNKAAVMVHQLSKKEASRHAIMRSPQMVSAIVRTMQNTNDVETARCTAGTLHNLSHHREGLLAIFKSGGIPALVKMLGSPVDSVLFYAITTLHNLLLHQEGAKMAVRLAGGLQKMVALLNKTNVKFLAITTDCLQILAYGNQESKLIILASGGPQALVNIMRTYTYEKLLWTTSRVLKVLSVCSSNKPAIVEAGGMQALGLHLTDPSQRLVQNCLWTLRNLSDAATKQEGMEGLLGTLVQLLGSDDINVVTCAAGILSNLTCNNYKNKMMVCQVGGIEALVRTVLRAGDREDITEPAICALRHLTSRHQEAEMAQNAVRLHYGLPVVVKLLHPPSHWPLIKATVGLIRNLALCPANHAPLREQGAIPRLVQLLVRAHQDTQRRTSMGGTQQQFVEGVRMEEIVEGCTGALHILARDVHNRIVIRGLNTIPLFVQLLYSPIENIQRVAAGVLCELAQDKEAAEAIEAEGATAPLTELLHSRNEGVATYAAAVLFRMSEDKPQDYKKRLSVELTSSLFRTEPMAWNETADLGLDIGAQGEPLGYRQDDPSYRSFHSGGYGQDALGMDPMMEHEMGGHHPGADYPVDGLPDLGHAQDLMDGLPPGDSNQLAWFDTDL
# TEST: Fluorescence polarization IC50 (beta-catenin / 5FAM-TCF4 10-53 competition)
# Type: binding
# PARTICULARS: read-out: FP EC50
PROPERTY_LABEL: IC50 (nM)

>  <COMPOUND>
CC(=O)N1CCC[C@]12CC=CCCCC1(CCCC=CCCCCCC[C@@](C)(C(=O)N[C@@H](Cc3ccccc3)C(=O)N[C@@H](Cc3csc4ccccc34)C(=O)N[C@@H](CCC(N)=O)C(N)=O)NC(=O)[C@H](CCC(N)=O)NC(=O)[C@H](Cc3cccs3)NC(=O)[C@H](C)NC(=O)[C@H](C)NC(=O)[C@H](CCC(=O)O)NC(=O)[C@H](CC(=O)O)NC1=O)NC(=O)[C@H](C)NC(=O)[C@H](CC(=O)O)NC2=O (some centres unmarked) [I-486]

>  <READING_UNIT>
nM

>  <NUMBER>
147

$$$$
>  <COMPOUND>
CC[C@@H]1NC(=O)[C@H](CC(=O)O)NC(=O)[C@]2(CC=CCCCC3(CCCC=CCCCCCC[C@@](C)(C(=O)N[C@@H](Cc4ccccc4)C(=O)N[C@@H](Cc4csc5ccccc45)C(=O)N[C@@H](Cc4c[nH]cn4)C(N)=O)NC(=O)[C@H](CCC(N)=O)NC(=O)[C@H](Cc4ccccc4)NC(=O)[C@H](C)NC(=O)[C@H](C)NC(=O)[C@H](CCC(=O)O)NC(=O)[C@H](CC(=O)O)NC3=O)NC1=O)CCCN2C(C)=O (some centres unmarked) [I-571]

>  <READING_UNIT>
nM

>  <NUMBER>
32

$$$$
>  <COMPOUND>
CC(=O)N1CCC[C@]12CC=CCCCC1(CCCC=CCCCCCC[C@@](C)(C(=O)N[C@@H](Cc3ccccc3)C(=O)N[C@@H](Cc3csc4ccccc34)C(=O)N[C@@H](CCC(N)=O)C(N)=O)NC(=O)[C@H](CC(N)=O)NC(=O)[C@H](Cc3ccccc3)NC(=O)[C@H](C)NC(=O)[C@H](C)NC(=O)[C@H](CC(=O)O)NC(=O)[C@H](CC(=O)O)NC1=O)NC(=O)[C@H](CCC(C)C)NC(=O)[C@H](CC(=O)O)NC2=O (some centres unmarked) [I-548]

>  <READING_UNIT>
nM

>  <NUMBER>
17

$$$$
>  <COMPOUND>
CC(=O)N1CCC[C@]12CC=CCCCC1(CCCC=CCCCCCC[C@@](C)(C(=O)N[C@@H](Cc3ccccc3)C(=O)N[C@@H](Cc3csc4ccccc34)C(=O)N[C@@H](CCC(N)=O)C(N)=O)NC(=O)[C@H](CC(N)=O)NC(=O)[C@H](Cc3ccccc3)NC(=O)[C@H](C)NC(=O)[C@H](C)NC(=O)[C@H](CCC(=O)O)NC(=O)[C@H](CC(=O)O)NC1=O)NC(=O)[C@H](CC(C)C)NC(=O)[C@H](CC(=O)O)NC2=O (some centres unmarked) [I-576]

>  <READING_UNIT>
nM

>  <NUMBER>
23

$$$$
>  <COMPOUND>
CC(=O)N1CCC[C@]12CC=CCCCC1(CCCC=CCCCOC(=O)N3CC[C@@](C(=O)N[C@@H](Cc4ccsc4)C(=O)N[C@@H](Cc4csc5ccccc45)C(=O)N[C@@H](CCC(N)=O)C(N)=O)(C3)NC(=O)[C@H](CC(N)=O)NC(=O)[C@H](Cc3ccccc3)NC(=O)[C@H](C)NC(=O)[C@H](C)NC(=O)[C@H](CN(CC(=O)O)CC(F)(F)F)NC(=O)[C@H](CC(=O)O)NC1=O)NC(=O)[C@H](CC(C)(C)C)NC(=O)[C@H](CC(=O)O)NC2=O (single isomer, unassigned) [I-762]

>  <READING_UNIT>
nM

>  <NUMBER>
6

$$$$
